The values you see were collected from ChEMBL document CHEMBL3526010.

ASSAY EXPLANATION: Retention time of the compound
Assay type: physicochemical
Binary label based on Retention_time with cut-off 40 min: below gives condition met, not below gives condition not met.

INSERT INTO assay_data (molecule, label) VALUES
  ('CN1CCc2nc(C(=O)N[C@@H]3C[C@@H](C(=O)N(C)C)CC[C@@H]3NC(=O)C(=O)O)sc2C1', 'condition met'),
  ('CNC(=O)[C@H]1CC[C@H](NC(=O)C(=O)Nc2ccc(Cl)cn2)[C@H](NC(=O)c2nc3c(s2)CN(C)CC3)C1 (stereo in doubt; M8)', 'condition not met'),
  ('CN1CCc2nc([14C](=O)N[C@@H]3C[C@@H](C(=O)N(C)C)CC[C@@H]3NC(=O)C(=O)Nc3ccc(Cl)cn3)sc2C1', 'condition not met'),
  ('CN1CCc2nc(C(=O)N[C@@H]3C[C@@H](C(=O)N(C)C)CC[C@@H]3N)sc2C1 (stereo in doubt; M2)', 'condition met'),
  ('CN(C)C(=O)[C@H]1CC[C@H](NC(=O)C(=O)Nc2ccc(Cl)cn2)[C@H](NC(=O)c2nc3c(s2)CNCC3)C1', 'condition not met'),
  ('CN(C)C(=O)[C@H]1CC[C@H](NC(=O)C(=O)Nc2ccc(Cl)cn2)[C@H](NC(=O)c2nc3c(s2)C[N+](C)([O-])CC3)C1 (stereo partly drawn)', 'condition not met');

* * *

Parameter beta t1/2: see the listing below.
System: Plasma
ASSAY EXPLANATION: Terminal elimination half life in human plasma treated with 60 mg, po of [14C]edoxaban by LC-MS/MS analysis
Assay type: ADME, organism-based
RESULT TYPE: beta t1/2 (h)

INSERT INTO assay_data (compound, measured_result) VALUES
  ('CNC(=O)[C@H]1CC[C@H](NC(=O)C(=O)Nc2ccc(Cl)cn2)[C@H](NC(=O)c2nc3c(s2)CN(C)CC3)C1 (stereo in doubt; M8)', 9),
  ('CN(C)C(=O)[C@H]1CC[C@H](NC(=O)C(=O)Nc2ccc(Cl)cn2)[C@H](NC(=O)c2nc3c(s2)CNCC3)C1', 9),
  ('CN1CCc2nc(C(=O)N[C@@H]3C[C@@H](C(=O)N(C)C)CC[C@@H]3NC(=O)C(=O)O)sc2C1', 6.9),
  ('CN1CCc2nc(C(=O)N[C@@H]3C[C@@H](C(=O)O)CC[C@@H]3NC(=O)C(=O)Nc3ccc(Cl)cn3)sc2C1', 8.2);

* * *

ASSAY EXPLANATION: clinical
TEST CONDITIONS: human, in vivo
RESULT TYPE: Tmax (h)

INSERT INTO results (structure_smiles, display_unit, measured_result) VALUES
  ('CN1CCc2nc([14C](=O)N[C@@H]3C[C@@H](C(=O)N(C)C)CC[C@@H]3NC(=O)C(=O)Nc3ccc(Cl)cn3)sc2C1', 'h', 1);

* * *

ASSAY EXPLANATION: Tmax in human plasma at 60 mg, po by LC-MS/MS analysis
Assay type: ADME, organism-based
RESULT TYPE: Tmax (min)

INSERT INTO assay_data (structure_smiles, result_type, display_unit, measured_result) VALUES
  ('CN1CCc2nc([14C](=O)N[C@@H]3C[C@@H](C(=O)N(C)C)CC[C@@H]3NC(=O)C(=O)Nc3ccc(Cl)cn3)sc2C1', 'Tmax', 'min', 30);
